Test system: tagln
assay.details: Real-time quantitative PCR of PLsis marker gene expression
Type: cell-based, human
recorded.conditions: HepG2 cells, 24 hr exposure, relative value, control group = 1.0, GAPDH internal standard, n=3
measured.property: expression variation rate tagln

Guide cases for expression variation rate tagln, answers given:
compound: CC(C)NCC(O)c1ccc(NS(C)(=O)=O)cc1 (centres unmarked)
target.of.assay: tagln
expression variation rate tagln: 0.80

compound: CC1COc2c(N3CCN(C)CC3)c(F)cc3c(=O)c(C(=O)O)cn1c23 (centres unmarked)
target.of.assay: tagln
expression variation rate tagln: 0.74

compound: CC(=O)Nc1ccc(O)cc1
target.of.assay: tagln
expression variation rate tagln: 0.93

(P) CNS(=O)(=O)Cc1ccc2[nH]cc(CCN(C)C)c2c1
(Q) N=C(N)c1ccc(OCCCCCOc2ccc(C(=N)N)cc2)cc1
Identify the entry with the larger expression variation rate tagln. Options: P and Q Selection: enter the item's label.
P
(P: 1.06, Q: 0.68)

Taken from patent US20070218460A1.
